Molecular target: CYP2J2 (Homo sapiens, UniProt P51589)
Sequence (P51589 whole entry): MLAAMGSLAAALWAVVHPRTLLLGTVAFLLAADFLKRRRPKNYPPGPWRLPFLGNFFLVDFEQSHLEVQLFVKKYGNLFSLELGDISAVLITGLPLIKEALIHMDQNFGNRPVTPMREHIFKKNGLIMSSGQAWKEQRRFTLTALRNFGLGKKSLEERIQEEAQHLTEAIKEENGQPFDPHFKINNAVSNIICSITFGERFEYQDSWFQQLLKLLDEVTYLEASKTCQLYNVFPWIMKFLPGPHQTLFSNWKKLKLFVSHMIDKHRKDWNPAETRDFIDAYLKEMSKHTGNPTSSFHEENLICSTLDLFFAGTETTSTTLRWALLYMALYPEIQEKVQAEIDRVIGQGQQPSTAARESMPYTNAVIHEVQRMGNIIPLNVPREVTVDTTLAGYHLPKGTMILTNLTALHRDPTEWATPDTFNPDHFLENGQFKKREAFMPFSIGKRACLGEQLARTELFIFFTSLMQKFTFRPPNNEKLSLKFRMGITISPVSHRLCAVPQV
Assay: in vitro
Conditions: recombinant CYP2J2, probe terfenadine (hydroxylation)
measuredParameter: activity at 5 min, 30 µM (%)
Report only the number, with the unit % understood.

>  <molecule>
COc1ccc2[nH]c([S+]([O-])Cc3ncc(C)c(OC)c3C)nc2c1 (stereo not given) [OMEPRAZOLE]

>  <resultValue>
46.1

$$$$
>  <molecule>
O=c1[nH]c2ccccc2n1C1CCN(CCCC(c2ccc(F)cc2)c2ccc(F)cc2)CC1 [PIMOZIDE]

>  <resultValue>
27.3

$$$$

Request: Could you share which activity at 5 min, 30 µM value was measured for O=c1[nH]c2ccccc2n1CCCN1CCC(n2c(=O)[nH]c3cc(Cl)ccc32)CC1 [DOMPERIDONE] ?
Result: 43.5

Request: Consider next the molecule COCCCC/C(=N\OCCN)c1ccc(C(F)(F)F)cc1 [FLUVOXAMINE] in the same way.
Result: 48.7

Request: Consider next the molecule Cc1ccccc1C(OCCN(C)C)c1ccccc1 (stereo not given) [ORPHENADRINE] in the same way.
Result: 1.2

====

target: CYP2J2 (Homo sapiens); experiment: in vitro; conditions: recombinant enzyme
Examples of compounds with documented activity at 5 min, 30 µM follow.
Report only the number, with the unit % understood.

Illustrative cases are given below, each with its answer.
>  <compound>
CCOC(=O)N1CCC(=C2c3ccc(Cl)cc3CCc3cccnc32)CC1

>  <activity at 5 min, 30 µM, %>
4

$$$$
>  <compound>
CN(C)CCC=C1c2ccccc2C=Cc2ccccc21

>  <activity at 5 min, 30 µM, %>
65.9

$$$$
>  <compound>
CNCCC(Oc1ccc(C(F)(F)F)cc1)c1ccccc1 (stereo unspecified)

>  <activity at 5 min, 30 µM, %>
87

$$$$

Request: Could you share which activity at 5 min, 30 µM value was measured for CNCCC=C1c2ccccc2CCc2ccccc21 ?
Result: 70.1

Request: Consider next the compound CCCCc1oc2ccccc2c1C(=O)c1cc(I)c(OCCN(CC)CC)c(I)c1 in the same way.
Result: 18.7

Request: Consider next the compound COC(=O)C1=C(C)NC(C)=C(C(=O)OCCN(C)Cc2ccccc2)C1c1cccc([N+](=O)[O-])c1 (stereo unspecified) in the same way.
Result: 5.8

====

molecular target: CYP2J2 (Homo sapiens, UniProt P51589); assay: in vitro; settings: recombinant CYP2J2, probe astemizole (O-demethylation)
Counter-ions that a name gives are not always drawn.
# cutoff 8% applies to activity at 5 min, 30 µM; >= gives true (1), < gives false (0)

Answered examples (6):
>  <molecule>
CCN(CC)Cc1cc(Nc2ccnc3cc(Cl)ccc23)ccc1O [AMODIAQUINE]

>  <targetOrSystem>
CYP2J2 (Homo sapiens, UniProt P51589)

>  <className>
false (0)

$$$$
>  <molecule>
CSc1ccc2c(c1)N(CCC1CCCCN1C)c1ccccc1S2 (stereo not drawn) [THIORIDAZINE]

>  <targetOrSystem>
CYP2J2 (Homo sapiens, UniProt P51589)

>  <className>
true (1)

$$$$
>  <molecule>
CC(=O)N1CCN(c2ccc(OCC3COC(Cn4ccnc4)(c4ccc(Cl)cc4Cl)O3)cc2)CC1 (stereo not drawn) [KETOCONAZOLE]

>  <targetOrSystem>
CYP2J2 (Homo sapiens, UniProt P51589)

>  <className>
false (0)

$$$$
>  <molecule>
CC/C(=C(\c1ccccc1)c1ccc(OCCN(C)C)cc1)c1ccccc1 [TAMOXIFEN]

>  <targetOrSystem>
CYP2J2 (Homo sapiens, UniProt P51589)

>  <className>
true (1)

$$$$
>  <molecule>
O=C(CCCN1CCC(O)(c2ccc(Cl)cc2)CC1)c1ccc(F)cc1 [HALOPERIDOL]

>  <targetOrSystem>
CYP2J2 (Homo sapiens, UniProt P51589)

>  <className>
true (1)

$$$$
>  <molecule>
Fc1ccc([C@@H]2CCNC[C@H]2COc2ccc3c(c2)OCO3)cc1 [PAROXETINE HYDROCHLORIDE]

>  <targetOrSystem>
CYP2J2 (Homo sapiens, UniProt P51589)

>  <className>
true (1)

$$$$

For the next question, use this molecule.
Request: Hello, I need to know if O=c1[nH]c2ccccc2n1C1CCN(CCCC(c2ccc(F)cc2)c2ccc(F)cc2)CC1 [PIMOZIDE] has measured activity at 5 min, 30 µM not below 8%. Thanks!
Result: false (0)

====

Target: CYP2J2 (Homo sapiens, UniProt P51589)
Sequence (P51589 whole entry): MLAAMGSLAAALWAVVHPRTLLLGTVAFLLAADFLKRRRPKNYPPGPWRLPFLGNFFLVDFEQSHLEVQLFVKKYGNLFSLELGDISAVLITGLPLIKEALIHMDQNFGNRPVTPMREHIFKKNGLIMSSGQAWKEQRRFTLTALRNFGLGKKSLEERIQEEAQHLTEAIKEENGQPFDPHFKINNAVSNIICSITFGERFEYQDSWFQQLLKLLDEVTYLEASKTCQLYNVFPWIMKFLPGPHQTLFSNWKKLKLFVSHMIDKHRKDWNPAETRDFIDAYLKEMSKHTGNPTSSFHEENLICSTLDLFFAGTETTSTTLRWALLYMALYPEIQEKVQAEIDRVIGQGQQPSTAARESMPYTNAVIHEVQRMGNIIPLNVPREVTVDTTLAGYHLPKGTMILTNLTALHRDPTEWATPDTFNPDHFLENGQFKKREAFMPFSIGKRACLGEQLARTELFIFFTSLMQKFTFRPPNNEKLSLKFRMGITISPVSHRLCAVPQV
Assay: in vitro
Conditions: recombinant CYP2J2, probe terfenadine (hydroxylation)
measuredParameter: activity at 5 min, 30 µM (%)
Report only the number, with the unit % understood.

>  <molecule>
Cc1c(OCC(F)(F)F)ccnc1C[S+]([O-])c1nc2ccccc2[nH]1 (stereo not drawn) [LANSOPRAZOLE]

>  <targetOrSystem>
CYP2J2 (Homo sapiens, UniProt P51589)

>  <unitSymbol>
%

>  <resultValue>
0.7

$$$$
>  <molecule>
Clc1ccccc1C(c1ccccc1)(c1ccccc1)n1ccnc1 [CLOTRIMAZOLE]

>  <targetOrSystem>
CYP2J2 (Homo sapiens, UniProt P51589)

>  <unitSymbol>
%

>  <resultValue>
14.1

$$$$
>  <molecule>
CC[C@H](C)C(=O)O[C@H]1C[C@@H](C)C=C2C=C[C@H](C)[C@H](CC[C@@H]3C[C@@H](O)CC(=O)O3)[C@H]21 [LOVASTATIN]

>  <targetOrSystem>
CYP2J2 (Homo sapiens, UniProt P51589)

>  <unitSymbol>
%

>  <resultValue>
37.7

$$$$
>  <molecule>
CCC(=O)C(CC(C)N(C)C)(c1ccccc1)c1ccccc1 (stereo not drawn) [METHADONE]

>  <targetOrSystem>
CYP2J2 (Homo sapiens, UniProt P51589)

>  <unitSymbol>
%

>  <resultValue>
43

$$$$
>  <molecule>
C#C[C@]1(O)CC[C@H]2[C@@H]3CCC4=Cc5oncc5C[C@]4(C)[C@H]3CC[C@@]21C [DANAZOL]

>  <targetOrSystem>
CYP2J2 (Homo sapiens, UniProt P51589)

>  <unitSymbol>
%

>  <resultValue>
1.6

$$$$
>  <molecule>
CC/C(=C(\c1ccccc1)c1ccc(OCCN(C)C)cc1)c1ccccc1 [TAMOXIFEN]

>  <targetOrSystem>
CYP2J2 (Homo sapiens, UniProt P51589)

>  <unitSymbol>
%

>  <resultValue>
11.5

$$$$
>  <molecule>
O[C@@H](c1cc(C(F)(F)F)nc2c(C(F)(F)F)cccc12)[C@H]1CCCCN1 (relative stereo) [(S,R)-MEFLOQUINE]

>  <targetOrSystem>
CYP2J2 (Homo sapiens, UniProt P51589)

>  <unitSymbol>
%

>  <resultValue>
22.4

$$$$

Request: Could you share which activity at 5 min, 30 µM value was measured for COc1ccc(CCN(C)CCCC(C#N)(c2ccc(OC)c(OC)c2)C(C)C)cc1OC (stereo not drawn) ?
Result: 1.3
